# key: entry, value: IC50
test system: HPK1 pSLP76 (Ser376); test: Cellular assay phospho-SLP-76 (Ser376); assay type: cell-based, human; conditions: SLP76 Ser376 phosphorylation after αCD3/αCD28 stimulation; Jurkat (human) or EL-4 (mouse) cells, table does not say which; read-out: HPK1 pSLP76 IC50

>>> endpoint_value("NC(=O)c1cc(-c2ccc(CN3CCOCC3)cc2)nc2c(N[C@H]3CCCNC3)ncnc12")
"< 500 nM"
>>> endpoint_value("NC(=O)c1cc(-c2ccc(CN3CCOC(F)(F)C3)cc2)nc2c(N[C@H]3CCCNC3)ncnc12")
"500 to 1000 nM"
>>> endpoint_value("COc1ccccc1-c1cc(C(N)=O)c2ncnc(N[C@H]3CCCNC3)c2n1")
"> 1000 nM"
>>> endpoint_value("NC(=O)c1cc(-c2ccc(OCC3(O)CCCC3)cc2)nc2c(N[C@@H]3CNC[C@@H](F)C3)ncnc12")
"500 to 1000 nM"
>>> endpoint_value("NC(=O)c1cc(-c2ccc(C3(O)COC3)cc2)nc2c(N[C@H]3CCCNC3)ncnc12")
"500 to 1000 nM"

State its IC50: NC(=O)c1cc(-c2ccc(CN3CCOCC3)cc2)nc2c(N[C@@]3(c4ccccc4)CCCNC3)ncnc12
> 1000 nM

Give the measured IC50 for NC(=O)c1cc(-c2cc(F)c(OCC3(O)CCC3)c(F)c2)nc2c(N[C@H]3CCCNC3)ncnc12
< 500 nM

Supply reported IC50 belonging to this compound: NC(=O)c1cc(C2=CCN(C(=O)C3CC3)CC2)nc2c(N[C@H]3CCCNC3)ncnc12
500 to 1000 nM

Provide measured IC50 value, entry: Cc1nn(C)cc1-c1cc(C(N)=O)c2ncnc(N[C@@H]3CNC[C@@H](F)C3)c2n1
< 500 nM

Specify IC50 for COCCOc1ccc(-c2cc(C(N)=O)c3ncnc(N[C@H]4CCCNC4)c3n2)cn1 and stop.
> 1000 nM

Report IC50 for NC(=O)c1cc(-c2ccc(CN3CC4CC(C3)O4)cc2)nc2c(N[C@H]3CCCNC3)ncnc12
< 500 nM

Note down IC50 recorded for NC(=O)c1cc(-c2ccc(CN3C4COCC3COC4)cc2)nc2c(N[C@H]3CCCNC3)ncnc12
< 500 nM

Answer with the recorded IC50 of NC(=O)c1cc(-c2cc(F)c(OCC3(O)CCC3)c(F)c2)nc2c(N[C@@H]3CNC[C@@H](F)C3)ncnc12 only.
< 500 nM

Output IC50 of NC(=O)c1cc(-c2ccc(F)cc2)nc2c(N[C@H]3CCCNC3)ncnc12
< 500 nM
